Tested Target: Oat3 (organic anion transporter 3) (Mus musculus)
Method Summary: TP_TRANSPORTER: inhibition of benzylpenicillin uptake by Triiodothyronine at a concentration of 1000uM in Oat3-expressing oocyte cells
Type: functional, cell-based
Design: scale not given: the % may be the effect or the level left
Measurement Setup: Oat3-expressing oocytes, probe benzylpenicillin; read-out: Activity
Result Type: activity at 1000 µM (%)

Compound | Observed Value
N[C@@H](Cc1cc(I)c(Oc2ccc(O)c(I)c2)c(I)c1)C(=O)O [LIOTHYRONINE] | 39.8

###

Tested Target: Organic anion transporter 3 (Mus musculus)
Method Summary: TP_TRANSPORTER: uptake in Oat3-expressing oocyte cells
Type: functional, cell-based
Structures can show the parent of a compound that is named as a salt.

Compound | Activity
Nc1ccc(C(=O)NCC(=O)O)cc1 | substrate []
O=C(O)c1ccccc1O | substrate []
O=S(=O)(O)Oc1c[nH]c2ccccc12 [INDOXYL SULFATE] | substrate []
COc1ccc2c(c1)c(CC(=O)O)c(C)n2C(=O)c1ccc(Cl)cc1 | substrate []

###

Tested Target: Oat3 (organic anion transporter 3) (Mus musculus)
Method Summary: in vitro
Measurement Setup: Oat3-expressing oocytes, probe benzylpenicillin
Result Type: activity at 1000 µM (%)

Molecule | Result Type | Observed Value
CN/C(=N/CCSCc1nc[nH]c1C)NC#N [CIMETIDINE] | activity at 1000 µM | 6.88

###

Tested Target: Oat3 (organic anion transporter 3) (Mus musculus, UniProt O88909)
Sequence (O88909 whole entry): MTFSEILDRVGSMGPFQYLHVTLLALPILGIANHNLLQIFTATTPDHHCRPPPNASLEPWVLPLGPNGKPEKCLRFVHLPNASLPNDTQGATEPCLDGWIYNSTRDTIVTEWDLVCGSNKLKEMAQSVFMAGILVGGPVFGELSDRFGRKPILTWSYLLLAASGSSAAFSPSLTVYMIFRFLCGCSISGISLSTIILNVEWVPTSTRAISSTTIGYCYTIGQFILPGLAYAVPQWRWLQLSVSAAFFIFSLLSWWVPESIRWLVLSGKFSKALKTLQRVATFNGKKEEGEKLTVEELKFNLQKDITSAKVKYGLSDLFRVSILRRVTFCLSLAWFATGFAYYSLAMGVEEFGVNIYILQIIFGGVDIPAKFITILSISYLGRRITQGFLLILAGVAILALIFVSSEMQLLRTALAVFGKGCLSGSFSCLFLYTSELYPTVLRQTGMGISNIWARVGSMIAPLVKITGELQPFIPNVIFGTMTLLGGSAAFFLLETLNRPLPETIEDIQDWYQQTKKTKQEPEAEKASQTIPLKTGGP
Method Summary: TP_TRANSPORTER: inhibition of benzylpenicillin uptake by Pravastatin at a concentration of 1000uM in Oat3-expressing oocyte cells
Type: functional, cell-based
Design: scale not given: the % may be the effect or the level left
Measurement Setup: Oat3-expressing oocytes, probe benzylpenicillin; read-out: Activity

Smiles Code | activity at 1000 µM / %
CC[C@H](C)C(=O)O[C@H]1C[C@H](O)C=C2C=C[C@H](C)[C@H](CC[C@@H](O)C[C@@H](O)CC(=O)O)[C@H]21 | 2.85

###

Tested Target: Oat3 (organic anion transporter 3) (Mus musculus, UniProt O88909)
Method Summary: TP_TRANSPORTER: inhibition of benzylpenicillin uptake by Indoxyl sulfate at a concentration of 1000uM in Oat3-expressing oocyte cells
Format: functional, cell-based
Parameters: scale not given: the % may be the effect or the level left
Measurement Setup: Oat3-expressing oocytes, probe benzylpenicillin; read-out: Activity
Counter-ions that a name gives are not always drawn.

Compound | activity at 1000 µM / %
O=S(=O)(O)Oc1c[nH]c2ccccc12 [INDOXYL SULFATE] | 21.9
